Where do the numbers come from? From ChEMBL document CHEMBL1131628.

target: Endothelin-1 receptor (Rattus norvegicus); assay: Binding affinity for endothelin A receptor by measuring its ability to displace [125I]ET1 from prolactin secreting rat pituitary cells(MMQ)
Sequence (P26684 whole entry): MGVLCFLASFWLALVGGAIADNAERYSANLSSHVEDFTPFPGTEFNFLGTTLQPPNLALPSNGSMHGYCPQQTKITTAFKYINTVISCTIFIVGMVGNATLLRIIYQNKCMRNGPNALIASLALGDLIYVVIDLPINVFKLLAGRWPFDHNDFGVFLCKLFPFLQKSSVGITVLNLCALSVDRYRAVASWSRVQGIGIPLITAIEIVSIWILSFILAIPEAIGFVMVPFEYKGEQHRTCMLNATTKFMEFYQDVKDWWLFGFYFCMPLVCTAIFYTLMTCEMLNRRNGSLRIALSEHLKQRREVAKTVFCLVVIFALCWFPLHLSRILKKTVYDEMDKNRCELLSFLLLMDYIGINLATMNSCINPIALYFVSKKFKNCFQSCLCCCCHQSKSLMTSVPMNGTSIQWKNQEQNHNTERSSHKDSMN
Measured metric: IC50 (nM)

CCCCN(CCCC)C(=O)CN1C[C@H](c2ccc3c(c2)OCO3)[C@@H](C(=O)O)[C@@H]1CC(CCC)CCC; 6

A. CCCCC[C@H]1[C@H](C(=O)O)[C@@H](c2ccc3c(c2)OCO3)CN1CC(=O)N(CCCC)CCCC
B. CCCCN(CCCC)C(=O)CN1C[C@H](c2ccc3c(c2)OCO3)[C@@H](C(=O)O)[C@@H]1CCC1CCCO1 (stereo not given in full)
Problem: IC50 comparison. Which is larger, A or B ? // output: label of the selected item
Solution: B
(B: 12 nM, A: 2.5 nM)

A. CCCCN(CCCC)C(=O)CN1C[C@H](c2ccc3c(c2)OCO3)[C@@H](C(=O)O)[C@@H]1CCc1cccn1C
B. C/C=C/CC[C@H]1[C@H](C(=O)O)[C@@H](c2ccc3c(c2)OCO3)CN1CC(=O)N(CCCC)CCCC
C. CCCCN(CCCC)C(=O)CN1C[C@H](c2ccc3c(c2)OCO3)[C@@H](C(=O)O)[C@@H]1CCC=C(C)C
Problem: Sort (3 compounds) by IC50: min first. Reply with the labels, ordered as the question asks.
Solution: C, A, B
(C: 1.3 nM, A: 2.5 nM, B: 4.8 nM)

A. CCCCN(CCCC)C(=O)CN1C[C@H](c2ccc3c(c2)OCO3)[C@@H](C(=O)O)[C@@H]1CCC(C)CC (stereo not given in full)
B. CCCCN(CCCC)C(=O)CN1C[C@H](c2ccc3c(c2)OCO3)[C@@H](C(=O)O)[C@@H]1CCn1cccn1
Problem: Which entry has a larger number for IC50, A or B ? Refer to your chosen item by its label in the answer.
Solution: A

I. CCCCN(CCCC)C(=O)CN1C[C@H](c2ccc3c(c2)OCO3)[C@@H](C(=O)O)[C@@H]1CC(C)(C)C=C(C)C
II. CCCCN(CCCC)C(=O)CN1C[C@H](c2ccc3c(c2)OCO3)[C@@H](C(=O)O)[C@@H]1CC(C)(C)CCC
Problem: Look at I and II . Which one has the lower recorded IC50 number? Indicate which entry you chose by stating its label.
Solution: II

A. CCCCN(CCCC)C(=O)CN1C[C@H](c2ccc3c(c2)OCO3)[C@@H](C(=O)O)[C@@H]1CCC1OCCCO1
B. CCCCN(CCCC)C(=O)CN1C[C@H](c2ccc3c(c2)OCO3)[C@@H](C(=O)O)[C@@H]1CCN1CCCC1=O
Problem: Higher IC50 between A and B ? I would appreciate it if you answered with the label of your choice.
Solution: A

1. CCCCN(CCCC)C(=O)CN1C[C@H](c2ccc3c(c2)OCO3)[C@@H](C(=O)O)[C@@H]1CCC1CCOCC1
2. CCCCN(CCCC)C(=O)CN1C[C@H](c2ccc3c(c2)OCO3)[C@@H](C(=O)O)[C@@H]1CCCC1OCCO1
3. CCCCN(CCCC)C(=O)CN1C[C@H](c2ccc3c(c2)OCO3)[C@@H](C(=O)O)[C@@H]1CCCCC(F)(F)F
4. CCCCN(CCCC)C(=O)CN1C[C@H](c2ccc3c(c2)OCO3)[C@@H](C(=O)O)[C@@H]1CCCC(C)C
Problem: Ordering criterion: IC50; begin with the maximum. # output: labels, in the requested order
Solution: 1, 2, 3, 4

I. CCCCN(CCCC)C(=O)CN1C[C@H](c2ccc3c(c2)OCO3)[C@@H](C(=O)O)[C@@H]1CCC1OC(C)C(C)O1 (stereo not given in full)
II. CCCCN(CCCC)C(=O)CN1C[C@H](c2ccc3c(c2)OCO3)[C@@H](C(=O)O)[C@@H]1CCN1C(=O)CCC1=O
Problem: Decide: I or II , by lowest recorded IC50. Answer format: the label of the selected item.
Solution: II
(II: 5 nM, I: 13 nM)

a. C=CCCC[C@H]1[C@H](C(=O)O)[C@@H](c2ccc3c(c2)OCO3)CN1CC(=O)N(CCCC)CCCC
b. CCCCN(CCCC)C(=O)CN1C[C@H](c2ccc3c(c2)OCO3)[C@@H](C(=O)O)[C@@H]1CC(C)CCC (stereo not given in full)
c. CCCCN(CCCC)C(=O)CN1C[C@H](c2ccc3c(c2)OCO3)[C@@H](C(=O)O)[C@@H]1CCN1CCCCC1=O
Problem: Hey, quick one: sort these by IC50, low to high? # output: labels, in the requested order
Solution: c, b, a
(c: 2 nM, b: 3 nM, a: 9.9 nM)
